Assay: Displacement of [3H]prazosin from alpha-1-adrenergic receptor of calf neocortical membrane
Design: species or system Bos taurus
endpoint.name: pKd
// scale note: pKd = -log10(conc_M); give the bare number

compound CN1CCN2c3ccccc3Cc3ccccc3C2C1 (stereo unspecified) [MIANSERIN] , pKd observed: 7.37

###

Assay: Displacement of [3H]clonidine from alpha-2-adrenergic receptor of calf neocortical membrane
Set-up: species or system Bos taurus
Kd by entry:
Entry rule: numbers only, all in nM.

| compound | numeric.value |
| --- | --- |
| ClC1=CN2CCN=C2C(N2CCNCC2)=N1 | 1600 |
| Clc1cnc2cnc(N3CCNCC3)cn12 | 18900 |
| Clc1cn2c(Cl)cnc2c(N2CCNCC2)n1 | 1000 |
| c1cn2c(N3CCNCC3)cncc2n1 | 28100 |
| Cc1cnc2c(N3CCNCC3)nc(Cl)cn12 | 250 |

compound Clc1cn2ccnc2c(N2CCNCC2)n1 , Kd observed: 88

compound Clc1cn2c3c(nc2c(N2CCNCC2)n1)CCCC3 , Kd observed: 1500

compound Clc1cncc(N2CCNCC2)n1 , Kd observed: 150

compound c1cn2ccnc2c(N2CCNCC2)n1 , Kd observed: 19

compound CN1CCN2c3ccccc3Cc3ccccc3C2C1 (centres undefined) , Kd observed: 19

###

Species on record: Bos taurus
Test: Relative affinity for alpha-1 and alpha-2 adrenergic receptors
Design: reference not given here
Would you mind labelling by Ratio? At or over 2 is yes (1), under is no (0).

The following compounds have reported results that may help.
| compound | category |
| --- | --- |
| ClC1=CN2CCN=C2C(N2CCNCC2)=N1 | no (0) |
| Cc1cnc2c(N3CCNCC3)nc(Cl)cn12 | no (0) |
| Clc1cnc2cnc(N3CCNCC3)cn12 | no (0) |
| c1ccc2c(c1)N=C(N1CCNCC1)C1=NCCN12 | no (0) |
| Clc1cn2c3c(nc2c(N2CCNCC2)n1)CCCC3 | no (0) |
| Clc1cnc2c(N3CCNCC3)nccn12 | yes (1) |
| c1ccc(-c2cn3ccnc3c(N3CCNCC3)n2)cc1 | no (0) |
| c1cn2ccnc2c(N2CCNCC2)n1 | yes (1) |

Now examine the next entry.
Could you tell me if the measured Ratio of CN1CCN2c3ccccc3Cc3ccccc3C2C1 (centres undefined) [MIANSERIN] reaches 2 or more?
yes (1)

###

Assay: Displacement of [3H]prazosin from alpha-1-adrenergic receptor of calf neocortical membrane
Set-up: species or system Bos taurus
Conditions: read-out: Kd
Kd by entry:

| compound | Kd |
| --- | --- |
| c1cn2c(N3CCNCC3)cncc2n1 | 51000 nM |
| c1cn2ccnc2c(N2CCNCC2)n1 | 3100 nM |
| Clc1cnc2c(N3CCNCC3)nccn12 | 2780 nM |
| Clc1cncc(N2CCNCC2)n1 [MK-212] | 2400 nM |
| Clc1cn2ccnc2c(N2CCNCC2)n1 | 250 nM |
| ClC1=CN2CCN=C2C(N2CCNCC2)=N1 | 3000 nM |
| c1ccc(-c2cn3ccnc3c(N3CCNCC3)n2)cc1 | 360 nM |
| Cc1cnc2c(N3CCNCC3)nc(Cl)cn12 | 160 nM |

compound Clc1cn2c3c(nc2c(N2CCNCC2)n1)CCCC3 , Kd observed: 200 nM

compound Clc1cn2c(Cl)cnc2c(N2CCNCC2)n1 , Kd observed: 410 nM

###

Kd by entry:
Assay: Displacement of [3H]clonidine from alpha-2-adrenergic receptor of calf neocortical membrane
Design: species or system Bos taurus
Entry rule: numbers only, all in µM.

Answered cases to consult:
| chemical.smiles | Kd, µM |
| --- | --- |
| c1ccc2c(c1)N=C(N1CCNCC1)C1=NCCN12 | 1.8 |
| CN1CCN(c2nc(Cl)cn3ccnc23)CC1 | 0.144 |
| Clc1cnc2c(N3CCNCC3)nccn12 | 0.29 |

Now take the following compound into account.
compound c1ccc(-c2cn3ccnc3c(N3CCNCC3)n2)cc1 , Kd observed: 1.8

###

Organism: Bos taurus
Experiment: Relative affinity for alpha-1 and alpha-2 adrenergic receptors
Parameters: reference not given here
Flag rule - Ratio less than 3 flags 1; the remaining entries get -1.

Decide: Ratio of Clc1cn2c(Cl)cnc2c(N2CCNCC2)n1 strictly below 3?
1

Decide: Ratio of Clc1cn2ccnc2c(N2CCNCC2)n1 strictly below 3?
1

Decide: Ratio of c1cn2c(N3CCNCC3)cncc2n1 strictly below 3?
1

Decide: Ratio of Clc1cncc(N2CCNCC2)n1 strictly below 3?
-1

Decide: Ratio of CN1CCN(c2nc(Cl)cn3ccnc23)CC1 strictly below 3?
1

###

Assay: Displacement of [3H]prazosin from alpha-1-adrenergic receptor of calf neocortical membrane
Set-up: species or system Bos taurus
Details: read-out: Kd
pKd by entry:
// scale note: pKd = -log10(conc_M); give the bare number

Answered cases to consult:
| chemical.smiles | pKd |
| --- | --- |
| CN1CCN(c2nc(Cl)cn3ccnc23)CC1 | 6.42 |
| c1ccc2c(c1)N=C(N1CCNCC1)C1=NCCN12 | 5.89 |

Now take the following compound into account.
compound Clc1cnc2cnc(N3CCNCC3)cn12 , pKd observed: 5.17
